Tested on: T-47D breast
Assay: NCI tumour cell line growth inhibition, 48 h; in the data active = GI50 below about 0.43 µM; inactive = the rest
Form entry, call: pick from active, inactive

Recorded results for 5 compounds are shown here.
Compound | Answer label
CC1CCC2C(C)C3C(CC4C5CC=C6CC(OC7OC(CO)C(O)C(OC8OC(CO)C(O)C(O)C8O)C7OC7OC(C)C(O)C(O)C7O)CCC6(C)C5CCC43C)N2C1 (stereo not given) | inactive
COc1cnc2c(c1)C(=O)c1c-2n(CCCN2CCNCC2)c(=O)c2cc(Cl)ccc12 | inactive
CC(C)=CCC/C(C)=C/CC/C(=C/COP(=O)(OCc1ccc([N+](=O)[O-])o1)N(C)CCCCCl)CC=C(C)C (stereo not given) | inactive
O=C1/C(=C/c2ccc([N+](=O)[O-])s2)Oc2ccccc21 | active
O=C(O)c1ccc(-c2ccc(C(=O)O)cc2I)c(I)c1 | inactive

Name the outcome recorded for O=C(CC1(O)C(=O)Nc2ccc(Br)cc21)c1ccc(C(=O)NCC2CCC3(CC2)OOC2(CCCCC2)OO3)cc1 (stereo not given) in the assay. inactive

And then Cc1ccc2[nH]c(C(=O)NN3C(=O)CSC34CCCC(C)C4)c(-c3ccccc3)c2c1 (stereo not given) , what is it? inactive

And then `CCCC[P+](c1ccccc1)(c1ccccc1)c1ccccc1` , what is it? inactive

And then `C=CC[Se]C(=O)Cc1c(C)n(C(=O)c2ccc(Cl)cc2)c2ccc(OC)cc12` , what is it? inactive

And then `O=C(Nc1cccc(C(F)(F)F)c1)c1cccc(NC2=C(Cl)C(=O)N(Cc3ccccc3)C2=O)c1` , what is it? inactive

And then `COc1ccc2c(c1OC)-c1c(c3ccc([N+](=O)[O-])cc3c(=O)n1CCCN=[N+]=[N-])C2=O` , what is it? inactive

And then `CCCCCC(=O)OCC(=O)O[C@@H]1C[C@]2(C(C)C)O[C@@]1(C)[C@@H]1CC[C@@H](C)[C@H]1[C@@H]2OC(=O)/C=C/c1ccccc1` , what is it? inactive

###

Tested on: RPMI-8226 leukemia
Experiment: NCI tumour cell line growth inhibition, 48 h
Catalogue of TGI values

Param item = `O=C1SC(c2ccc(Cl)cc2)(c2ccc(Cl)cc2)c2ccccc21` ; retrieve measured TGI. > 100 µM

And then `CCOC(=O)c1c2c(c(O)c3ccccc3c(O)n(-c3ccc(C)cc3)c1C)C(=O)C=CC2=O` , what is it? 30.3 µM

###

Tested on: DLD-1 colon
Test: NCI tumour cell line growth inhibition, 48 h
Recorded metric: TGI

Use these answered entries as a reference point.
Compound | Assay result
CC(C)(C)C1CCC2(CC1)CCN(CCCN1CCOCC1)CC2 | > 100 µM
COc1ccc(/C(Cl)=C(\C=O)c2ccc(OC)c(OC)c2)cc1OC | > 100 µM
C=C1CC2(OC1=O)c1ccccc1C=Cc1ccccc12 | 3.76 µM
CN(/N=C/c1ccnc2ccccc12)c1ccc([N+](=O)[O-])cc1[N+](=O)[O-] | > 100 µM
Oc1cc(O)cc(/C=C/c2ccc(O)c(O)c2)c1 | > 31.6 µM

Param item = N#CCC(=O)N/N=C1/C(=O)NC(=O)C(=O)C1c1nc2ccccc2s1 (stereo unspecified) ; retrieve measured TGI. > 100 µM

###

Test system: A498 renal
Test: NCI tumour cell line growth inhibition, 48 h
Recorded metric: TGI

Compound | Target desc | Assay result
OCC(O)COc1c(Cl)ccc(Cl)c1Cl (stereo not given) | A498 renal | > 100 µM

Param item = `Cn1c2ccccc2c(=O)c2c(O)cc3c(c21)C=CC1(CCCC1)O3` ; retrieve measured TGI. > 100 µM

And then CCCCN(CCCC)CC(C)(C)C(O)c1ccc(OC)c2ccccc12 (stereo not given) , what is it? 22.9 µM

And then `CCN(Cc1nc2cc(C(F)(F)F)ccc2nc1-c1ccccc1)c1ccc(OC)c(OC)c1` , what is it? 20.7 µM

And then `CN(C)c1ccc(/C=C2\N=C(N/N=C/c3ccccc3)NC2=O)cc1` , what is it? > 100 µM

And then `COc1ccc(CNc2nc(NCc3ccc(OC)cc3)nc(NC(C)C)n2)cc1` , what is it? 47.1 µM

And then `Cn1cnc([N+](=O)[O-])c1SCC(=O)O` , what is it? > 100 µM

And then `COC(C/C(=C/CO[Si](C(C)C)(C(C)C)C(C)C)C(=O)Nc1ccccc1I)OC` , what is it? > 100 µM

And then `Oc1cc(O)cc(/C=C/c2ccc(O)c(O)c2)c1` , what is it? > 70 µM

And then C[C@H]1C(OCCOC2O[C@@H]3O[C@@]4(C)CC[C@H]5[C@H](C)CCC([C@H]2C)[C@@]35O4)O[C@@H]2O[C@@]3(C)CC[C@H]4[C@H](C)CCC1[C@@]24O3 (stereo not given in full) , what is it? > 100 µM

###

System: SK-MEL-5 melanoma
Experiment: NCI tumour cell line growth inhibition, 48 h
Recorded metric: TGI

Compound | TGI
Cc1[nH]n(-c2nc3c(c(=O)[nH]2)CCC3)c(=O)c1CCO | > 100 µM
O=C(N/C(=C\c1ccc(Br)cc1)c1nc2ccccc2s1)c1ccccc1 | > 100 µM
COC(=O)/C(C#N)=C1\NC(=O)CC(c2ccccc2)C1C#N (configuration not stated) | > 100 µM
Cc1ccc(S(=O)(=O)[N-]C2C(=O)c3ccccc3C(=O)C2[n+]2cccc(C(N)=O)c2)cc1 (configuration not stated) | > 100 µM
CC1(C)OC(=O)C(C)(C)OC1=O | > 100 µM
O=C1C(Cl)=C(Nc2cccc(C(F)(F)F)c2)C(=O)N1Cc1ccccc1Cl | 14.7 µM
CCc1ccc(/C(C)=N/NC(N)=S)cc1 | > 100 µM
COc1ccc2c(c1OC)-c1c(c3ccc([N+](=O)[O-])cc3c(=O)n1CCCN=[N+]=[N-])C2=O | > 100 µM

Value wanted: TGI (SK-MEL-5 melanoma) of entry `O=C(O)c1ccc(S(=O)(=O)N=Nc2c(O)[nH]c3ccccc23)cc1` > 100 µM

And then COc1cc2ccc1-c1cc(ccc1O)CC1c3cc4c(cc3CCN1C)Oc1c(OC)cc3c(c1O4)C(C2)N(C)CC3 (configuration not stated) , what is it? 3.52 µM

And then `NS(=O)(=O)c1ccc(NC(=O)CC(=O)Nc2ccc(S(N)(=O)=O)cc2)cc1` , what is it? > 100 µM

And then `NC(=O)C(=CN1C(=O)CC(=O)NC1=S)C(N)=O` , what is it? > 100 µM

And then `Oc1cc(O)cc(/C=C/c2ccc(O)c(O)c2)c1` , what is it? > 49.1 µM

And then `CCC(CC)C(=O)OC[n+]1cccc(-c2c(COC(=O)NC(C)C)c(COC(=O)NC(C)C)c3n2CCC3)c1` , what is it? > 100 µM

###

Catalogue of TGI values
Test system: HS 578T breast
Experiment: NCI tumour cell line growth inhibition, 48 h
// return numeric value only (unit: µM, not printed)

Use these answered entries as a reference point.
Compound | Assay result
CC(C)C[C@H](NC(=O)CCc1ccccc1)B(O)O | 29.6
COc1ccc(NC(=O)c2sc3nc(C)c(C(O)c4ccc(OC)cc4)cc3c2N)cc1 (stereo not given) | 4.09
Cc1ccc(C2SCc3nc4ccc(C(=O)c5ccccc5)cc4n32)cc1 (stereo not given) | 68.9
Cc1[nH]nc2c1N=C(c1ccccc1F)c1cc(C#N)ccc1N2 | 3.83
CC12CCc3ccccc3C1=Nc1ccccc12 (stereo not given) | 46.7

Param item = CCCC(=O)NC(c1ccc2c(c1)OCO2)c1ccc2cccnc2c1O (stereo not given) ; retrieve measured TGI. 78.8

And then CN1CC2=C(NC(=S)NC2c2ccc(Cl)cc2)/C(=C/c2ccc(Cl)cc2)C1 (stereo not given) , what is it? 40.3

And then `CC[C@@H](C)[C@H]([C@H](CC(=O)N1CCC[C@@H]1[C@@H](OC)[C@H](C)C(=O)N[C@H](Cc1ccccc1)c1nccs1)OC)N(C)C(=O)[C@H](NC(=O)[C@@H](C(C)C)N(C)C)C(C)C` , what is it? 4.06

###

Test system: SK-MEL-5 melanoma
Experiment: NCI tumour cell line growth inhibition, 48 h
Recorded metric: TGI (µM)
// return numeric value only (unit: µM, not printed)

Molecule | Unit | TGI
CC(C)C[C@H](NC(=O)CCc1ccccc1)B(O)O | µM | 22.8
c1ccc([C@@H]2N[C@@]3(CO[Si](c4ccccc4)(c4ccccc4)c4ccccc4)CC[C@H]4CN[C@@H]2[C@H]43)cc1 | µM | 19.2
Cc1[nH]nc2c1N=C(c1ccccc1F)c1cc(C#N)ccc1N2 | µM | 9.39

Param item = `CCOC(=O)N1C/C(=C/c2ccc(OC)cc2)C(=O)/C(=C/c2ccc(OC)cc2)C1` ; retrieve measured TGI. 3.17

And then CC1=CCC[C@@](C)(O)[C@@H]2C[C@H]3C(CSc4ccccc4)C(=O)O[C@H]3[C@@H](O2)[C@H](C)CCC1 (stereo not given in full) , what is it? 38.3

And then `O=C(Nc1cccc(C(F)(F)F)c1)c1cccc(NC2=C(Cl)C(=O)N(Cc3ccccc3)C2=O)c1` , what is it? 38.2

And then `O=C(NCCN1CCOCC1)Nc1ccc(-c2cc3c(Nc4ccc(Oc5cccc(C(F)(F)F)c5)c(Cl)c4)ncnc3s2)cc1` , what is it? 1.71

And then `O=C(c1cc(Br)ccc1O)c1cc(Br)ccc1O` , what is it? 25.4

And then COc1cc(C2CC(c3ccc4c(c3)OCO4)=NN2C(C)=O)cc(OC)c1OC (stereo not given) , what is it? 8.07
